Test system: CD2F1 mice, L1210 leukemia ip, survival T/C
experimental_protocol: NCI In Vivo Anticancer Drug Screen. Data for tumor model L1210 Leukemia (intraperitoneal) in CD2F1 (CDF1) mice
run_parameters: endpoint: mean survival time; dose: 50.0 mg/kg/injection; schedule: Q01DX009 (ip); vehicle: saline with Tween-80; higher = longer survival
Description: The antitumor activity of compounds was measured in mice bearing transplantable tumors. Survival or tumor size were measured and the results are expressed as the measurement made in the treated group (T) divided by the measurement made in the vehicle treated control group (C). The tumor model used in this assay is L1210 Leukemia (intraperitoneal) in CD2F1 (CDF1) mice
Toxic doses and inconclusive results are not listed.
readout_type: T/C

Guide cases for T/C, answers given:
I would be grateful if you could share the reported T/C for "COC(=O)C(Cl)(Cl)N=Nc1c(Cl)cc(Cl)c(C)c1Cl" .
94 % of control

Entry under review: "CC(C)(C)CC(C)(C)Nc1nc(NC(C)(C)CC(C)(C)C)nc(NC(C)(C)CC(C)(C)C)n1" . Reported T/C?
97 % of control

Data request, read-out T/C, for "[Co].[NH-]CC[NH-].[NH-]CC[NH-].[NH-]CC[NH-]"
101 % of control

Provide the reported T/C of each entry below, same order.
1. C=CCc1ccc(OC(=O)Nc2ccc(C)c([N+](=O)[O-])c2)c(OC)c1
2. O=S(=O)(Cl)OC1C2COC(O2)C(OS(=O)(=O)Cl)C1OS(=O)(=O)Cl (configuration not stated)
3. CCCC/C=C\C1CCCCC1C (configuration not stated)
4. Clc1cc(Cl)cc(Nc2nc(C(Cl)(Cl)Cl)nc(C(Cl)(Cl)Cl)n2)c1
5. CC#CC(=O)SCCNC(=O)CCNC(=O)CC(C)(C)C
6. N/C(=N\O)c1ccccc1
7. CCCCCCC#CC(O)CC (configuration not stated)

["98 % of control", "102 % of control", "87 % of control", "98 % of control", "98 % of control", "103 % of control", "97 % of control"]

Give T/C for each of the items listed below.
1. N=C(Oc1ccccc1)C(Cl)(Cl)Cl
2. CN(C)N=Nc1c(F)c(F)cc(F)c1F

90 % of control
107 % of control
